growth inhibition: recorded values
# test_name: OD615 S. cerevisiae growth inhibition, permissive medium, pilot counter-assay, permissive growth control for S. cerevisiae lifespan shortening project (AID 705)
# applied_conditions: OD615, 24 h, at 10 µM, stronger effect = higher value
reported_endpoint: growth inhibition (%)

INSERT INTO measurements (molecule, reading) VALUES
  ('CCOc1cc(C2C(C(=O)c3ccco3)=C(O)C(=O)N2CCc2ccccc2)ccc1O (stereo not given)', -35.8),
  ('Cc1cccc(N2CCN(C(=O)c3ccc(NC(=O)C4CCCO4)cc3)CC2C)c1 (stereo not given)', -10.9),
  ('COCCN1C(=O)c2oc3ccccc3c(=O)c2C1c1ccc(C(=O)OC)cc1 (stereo not given)', -1.7),
  ('N#CC1=C(SCC(=O)Nc2ccccc2)NC(=O)CC1c1ccc(O)cc1 (stereo not given)', -15.2),
  ('O=C(O)CCC(=O)N1CCc2cc(S(=O)(=O)N3CC=C(c4ccccc4)CC3)ccc21', 5.99),
  ('O=C1c2ccccc2NC(c2ccccc2)N1c1ccc(O)cc1 (stereo not given)', -0.23),
  ('COc1cccc(-c2nc(CS(=O)CC(=O)NCc3ccc4c(c3)OCO4)c(C)o2)c1 (stereo not given)', -3.78),
  ('C/C(CC(O)c1ccc2ccccc2n1)=N/O (stereo not given)', 1.34),
  ('COc1ccc(C2=NOC(C(=O)Nc3c(C)n(C)n(-c4ccccc4)c3=O)C2)cc1OC (stereo not given)', -9.01),
  ('COc1cc(C(=O)n2nc(C)cc2C)cc(OC)c1OC', -9.3);

====

viability: recorded values
# test_name: SK-BR-3 cell growth inhibitors, pilot screen, 24 h, human (AID 572);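 also: compound exposure lasted between 18 and 24 h rather than exactly 24 h; 100% = carrier-treated control wells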
# applied_conditions: SK-BR-3 viability, CellTiter-Glo luminescence, at 10 µM, stronger effect = lower value
reported_endpoint: viability (%)

INSERT INTO assay_data (molecule, reported_endpoint, units_text, reading) VALUES
  ('Cc1ccc(C(=O)NCc2ccc3c(c2)OCO3)cc1S(=O)(=O)N1CCCCC1', 'viability', '%', 91.5),
  ('COc1ccc(C(=O)NCc2ccccc2OC)cc1', 'viability', '%', 110),
  ('Cc1ccc(C)c(NC(=O)CC(NCCCN2CCOCC2)C(=O)O)c1 (stereo unspecified)', 'viability', '%', 94),
  ('Cc1cc(C)nc(Sc2ccc3nnc(C(F)(F)C(F)(F)C(F)(F)F)n3n2)n1', 'viability', '%', 83.5),
  ('CCOC(=O)N1CCN(C(=O)c2ccc3nc4cc(Cl)ccc4c(=O)n3c2)CC1', 'viability', '%', 91),
  ('Nc1ccc(S(=O)(=O)Nc2ncccn2)cc1', 'viability', '%', 96.5),
  ('O=c1ccc2cc3c([nH]c4ccc(Br)cc43)oc-2c1O', 'viability', '%', 146),
  ('CCC1CCCCN1C(=O)Cn1c(C(=O)OC)cc2sc(Cl)cc21 (stereo unspecified)', 'viability', '%', 76.5),
  ('Cc1cccc(N2CCN(C(=O)Cn3ccc4ccccc4c3=O)CC2)c1C', 'viability', '%', 90.5),
  ('COC(=O)c1ccc(CSc2nc3c(cnn3-c3ccc(C)c(C)c3)c(=O)[nH]2)o1', 'viability', '%', 90),
  ('CCCC(=O)N1c2ccccc2NC2=C(C(=O)CCC2)C1c1ccc(F)cc1 (stereo unspecified)', 'viability', '%', 98.5);

====

viability: recorded values
# test_name: reversal of MRP1-mediated doxorubicin resistance, pilot screen, H69AR cells, doxorubicin co-treatment (AID 601)
# applied_conditions: H69AR cells, CellTiter-Glo, 72 h; compound alone cytotoxicity; at 10 µM
reported_endpoint: viability (%)

INSERT INTO assay_data (molecule, reported_endpoint, reading) VALUES
  ('Cc1ccc(-n2nc(-c3cccs3)cc2C(=O)NCC2CCCO2)c(C)c1 (configuration not stated)', 'viability', 86.5),
  ('CCOC(=O)c1c(C)c(C(=O)NCCN2CCOCC2)c(C)n1C', 'viability', 86.7),
  ('Cc1cc(C)cc(NC(=O)C2CCCN(S(=O)(=O)c3cnc[nH]3)C2)c1 (configuration not stated)', 'viability', 88.6),
  ('CCOc1ccccc1NC(=O)N1C2CCCC1CC(NC(=O)C1CC1)C2 (configuration not stated)', 'viability', 96.8),
  ('Cn1cccc1-c1cc(C(=O)O)[nH]n1', 'viability', 93.8),
  ('CCN(Cc1cc2cc(OC)ccc2[nH]c1=O)C(=O)Cc1ccc(OC)cc1', 'viability', 88.2),
  ('Cn1c([N+](=O)[O-])cnc1COC(N)=O', 'viability', 102),
  ('COc1ccc2cc(C(c3nnnn3C3CCCCC3)N3CCCCCC3)c3nnnn3c2c1 (configuration not stated)', 'viability', 64.3),
  ('CCOc1ccccc1C1CC(=O)NC(SCC)=C1C#N (configuration not stated)', 'viability', 97),
  ('O=C(Nc1ccccc1C(F)(F)F)c1cc(S(=O)(=O)N2CCOCC2)ccc1F', 'viability', 90.4),
  ('C=CCNS(=O)(=O)c1ccc2nsnc2c1', 'viability', 100),
  ('O=C1CC(Cc2ccccc2)C(=O)N1CCCn1ccnc1 (configuration not stated)', 'viability', 92.2),
  ('C=CCSC1=C(C#N)C(c2ccccc2)CC(=O)N1 (configuration not stated)', 'viability', 104),
  ('COc1cc(-c2nn3c(-c4cccnc4)nnc3s2)cc(OC)c1OC', 'viability', 92.6),
  ('COc1ccc(-n2nc(C(=O)Nc3ccc4c(c3)OCO4)c3c4ccccc4n(C)c3c2=O)cc1', 'viability', 92.6),
  ('C=CCn1c(C)cc(C(=O)CSc2nc3ccccc3c(=O)[nH]2)c1C', 'viability', 77.8),
  ('Cc1ncc([N+](=O)[O-])n1CC(O)CCl (configuration not stated)', 'viability', 104),
  ('CCOC(=O)C1CCN(c2c(Nc3ccc4c(c3)OCCO4)c(=O)c2=O)CC1', 'viability', 88.4),
  ('FC(F)Sc1nnc(-c2cccs2)n1-c1ccccc1', 'viability', 98),
  ('COc1ccc2cc([C@H](C)C(=O)O)ccc2c1', 'viability', 94.8),
  ('COc1ccccc1CNC(=O)N[C@@H](Cc1ccccc1)C(=O)O', 'viability', 93.2),
  ('CCN(CC)CCN1C(=O)C(O)=C(C(=O)c2cccs2)C1c1ccccn1 (configuration not stated)', 'viability', 98),
  ('O=C(CSc1nnc2ccccn12)NCCN1C(=O)CSC1=O', 'viability', 105),
  ('CCOC(=O)c1[nH]c(C)c(C(=O)Nc2ccc(C)c(Cl)c2)c1C', 'viability', 28.6),
  ('O=C(NCc1ccco1)C1(S(=O)(=O)c2ccc(Cl)cc2)CC1', 'viability', 71.2),
  ('CC(=O)N[C@@H](CS)C(=O)O', 'viability', 101),
  ('CS(=O)(=O)N1CCN(c2ccccc2NC(=O)c2ccc(-c3ccc(Cl)cc3Cl)o2)CC1', 'viability', 86.4),
  ('CCCSc1nc2c(cnn2-c2ccc(Cl)cc2)c(=O)[nH]1', 'viability', 79),
  ('Cc1ncc([N+](=O)[O-])n1CCO', 'viability', 105),
  ('Cc1ccc(Cn2c(C(=O)NCCCN3CCOCC3)cc3sccc32)cc1', 'viability', 77.6),
  ('Cc1csc2ncc(C(=O)N3CCc4ccccc43)c(=O)n12', 'viability', 89),
  ('CCOC(=O)c1c(C)oc2ccc(O)c(CN3CCCCC3)c12', 'viability', 86.9),
  ('O=C(NCC1CCCO1)C1CCCN(Cc2cnn(-c3ccccc3)c2-n2cccc2)C1 (configuration not stated)', 'viability', 85.2),
  ('COCCn1c(C)cc(C(=O)COC(=O)CCN2C(=O)c3ccccc3C2=O)c1C', 'viability', 96.6),
  ('CC(C)(C)Nc1nc(NC(C)(C)C)nc(-n2ccnc2)n1', 'viability', 88.6),
  ('CCOC(=O)c1ccc(Oc2cc(C)nc(SC)n2)cc1', 'viability', 16.5),
  ('CCOc1ccc(C(=O)N2CCN(C(=O)c3ccco3)CC2)cc1OCC', 'viability', 94.3),
  ('CCSc1oc(-c2cccs2)nc1S(=O)(=O)c1ccccc1', 'viability', 82),
  ('CC(C)(C)C(=O)Cn1c(=N)n(Cc2ccccc2)c2ccccc21', 'viability', 76.2),
  ('O=C(O)C1CCCN1C(=O)Nc1ccc(F)cc1 (configuration not stated)', 'viability', 93.6),
  ('CCCc1nc(N2CCOCC2)c(C#N)c2c1CCCC2', 'viability', 91.4),
  ('Cn1c(=O)c2c(nc(SCCCO)n2Cc2ccccc2Cl)n(C)c1=O', 'viability', 79.3),
  ('O=C(NCCC1=CCCCC1)C1CC(=O)N(C2CCCCCC2)C1 (configuration not stated)', 'viability', 99.5),
  ('Cc1cc(C)n(-c2nc3ccccc3c(=O)n2OCCOc2ccccc2)n1', 'viability', 89.6),
  ('Nc1nnc(C(=O)c2ccccc2N)s1', 'viability', 96.3),
  ('Cc1nc2ccccc2cc1O', 'viability', 92),
  ('Cc1cnc(C(=O)Nc2ccc(N3CCOCC3)cc2)cn1', 'viability', 100);
